pIC50: −log10 of the molar value.
The compounds below each have a reported pIC50 tested on PIK3CA (human) (UniProt P42336); the values come from various publications.

Worked set:
INSERT INTO assay_data (smilesrepresentation, value) VALUES
  ('COc1ncc(-c2ccc3ncc4nnc(C)n4c3c2)cc1NS(=O)(=O)c1ccccc1', '> 7.00'),
  ('CC[C@H]1CN(c2nc3c(N4CCOCC4)nc(-c4cnc(N)nc4)nc3n2CC(F)(F)F)CCN1S(C)(=O)=O', '> 8.00'),
  ('CN1CCN(c2ccc(-c3cnc4c(N5CCOCC5)nc(-c5cnc(N)nc5)nc4c3)cc2NC(=O)C2CC2)CC1', '> 7.30'),
  ('C[C@@H](Nc1ncnc2[nH]cnc12)c1cc2cccc(Cl)c2c(CN2CCCC2)n1', '< 5.00'),
  ('Cc1cccc2cc([C@H](C)Nc3c(C#N)cnc4ccccc34)n(-c3ccccc3)c(=O)c12', '< 5.00');

Each of the following entries comes with a recorded value; kindly state pIC50 for each.
1. NC(=O)[C@@H]1CCCN1C(=O)C1CN(c2cnc3ccc(-c4ccc5oc(N)nc5c4)cc3n2)C1
2. C[C@H](NC(=O)c1c(N)nn2cccnc12)c1cc2cccc(C#CCNS(C)(=O)=O)c2c(=O)n1-c1ccccc1

stdout:
["> 7.00", "5.00 to 6.00"]

* * *

The molecules below each have a reported IC50 tested on UniProt:P42336; the values come from various publications.
Answers are plain numbers, in µM.

INSERT INTO measurements (smilesrepresentation, assayedsystem, value) VALUES
  ('Cn1cc(/C=C2\Oc3cc(O)cc(O)c3C2=O)c2c(N3CCOCC3)ccnc21', 'UniProt:P42336', 0.012);

Each of the following entries comes with a recorded value; kindly state IC50 for each.
1. CCN(CC)Cc1ccc(-c2ccnc3ccc(-c4cnc(OC)c(NS(=O)(=O)c5ccc(F)cc5F)c4)cc23)cc1
2. CC(C)(C)c1ncc2c(n1)-c1sc(NC(=O)N3CC[C@@H](O)[C@H]3C(N)=O)nc1CC2
3. O=c1cc(Oc2ccc(-c3ccoc3)cc2)c2ccccc2[nH]1
4. CN(C)CCOc1ccc(NC(=O)Nc2ccc3c(c2)C(=O)/C(=C/c2cn(C)c4nccc(N5CCC(C(=O)N(C)C)CC5)c24)O3)cc1
5. CNC(=O)c1ccc(-c2ccnc3c2c(/C=C2\Oc4cccc(O)c4C2=O)cn3C)cc1

stdout:
[0.0011, 0.009, 1.94, 0.778, 0.033]

* * *

The molecules below each have a reported pIC50 tested on PIK3CA (human); the values come from various publications.
pIC50: −log10 of the molar value.

INSERT INTO assay_data (smilesrepresentation, value) VALUES
  ('C[C@H](NC(=O)c1c(N)nn2cccnc12)c1cc2cccc(Cl)c2c(=O)n1-c1ccccc1', '5.00 to 6.00'),
  ('C[C@H](NC(=O)c1nccnc1N)c1cc2cccc(-c3cc[nH]n3)c2c(=O)n1-c1ccccc1', '< 5.00'),
  ('Cc1cccc(CN(C)C(=O)N2CCOc3ccc(-c4ccc5nc(C)[nH]c5c4)cc3C2)c1', '5.52 to 6.00'),
  ('Cc1nc2nnc3ccc(-c4cnc(N)c(C(F)(F)F)c4)cc3c2n1-c1ccc(C(C)(C)C#N)cc1', '> 7.00'),
  ('C[C@@H]1CN(CCCNC(=O)c2nc3c(N4CCOCC4)nc(-c4cnn(C)c4)nc3[nH]2)C[C@H](C)O1', '< 6.00');

Each of the following entries comes with a recorded value; kindly state pIC50 for each.
1. O=S(=O)(CCCF)Nc1cccc(-c2ccc3nc(-c4cnc(NCCCO)nc4)nc(N4CCOCC4)c3n2)c1F
2. COc1ccc(CNc2cccc(Oc3cc(=O)[nH]c4ccccc34)c2)cn1
3. C[C@H](NC(=O)c1cncc2cccnc12)c1cc2cccc(Cl)c2c(=O)n1-c1ccc(F)cc1
4. O=c1cc(Oc2cccc(-c3cnn(CCN4CCOCC4)c3)c2)c2ccccc2[nH]1

stdout:
["6.00 to 7.00", 5.39, "5.00 to 6.00", "< 5.00"]

* * *

pIC50: −log10 of the molar value.
The compounds below each have a reported pIC50 tested on PIK3CA (human); the values come from various publications.

Worked set:
INSERT INTO assay_data (compound, quantitykind, value) VALUES
  ('CC(C)Cn1c(N2CCN(C(=O)[C@H](C)O)CC2)nc2c(N3CCOC[C@@H]3C)nc(-c3cnc(N)nc3)nc21', 'pIC50', '7.70 to 8.00'),
  ('CC(C)c1ccnc2c(C(=O)N[C@@H](C)c3cc4cccc(Cl)c4c(=O)n3-c3ccccc3)c(N)nn12', 'pIC50', '< 5.00'),
  ('CC(=O)Nc1ccc2[nH]c(=O)cc(Oc3ccccc3)c2c1', 'pIC50', '< 5.00'),
  ('C[C@H](NC(=O)c1nccnc1N)c1cc2cccc(Cl)c2c(CCN2CCOCC2)n1', 'pIC50', '< 5.00'),
  ('C[C@H](NC(=O)c1cc(-c2cccc(NS(C)(=O)=O)c2)cnc1N)c1cc2cccc(Cl)c2c(=O)n1-c1ccccc1', 'pIC50', '< 5.00'),
  ('Cc1cccc2cc(Cn3nc(I)c4c(N)ncnc43)n(C3CCCC3)c(=O)c12', 'pIC50', '< 5.00');

Each of the following entries comes with a recorded value; kindly state pIC50 for each.
1. O=C1CCN(C(=O)N2CCOc3ccc(-c4ccc5[nH]c(NCCF)nc5c4)cc3C2)C(c2cccc(F)c2)C1 (stereo not drawn)
2. NS(=O)(=O)c1ccc(-c2cccc(Oc3cc(=O)[nH]c4ccccc34)c2)cc1

stdout:
≥ 7.12
< 5.00

stdin: Quick one: pIC50 for `C[C@H](N)C(=O)N1CCN(c2cnc3ccc(-c4ccc5oc(N)nc5c4)nc3n2)CC1` ?
stdout: > 7.00

* * *

The molecules below each have a reported pIC50 tested on PIK3CA (human) (UniProt P42336); the values come from various publications.
pIC50: −log10 of the molar value.

Worked set:
INSERT INTO assay_data (molecule, assayedsystem, value) VALUES
  ('FC(F)c1nc2ccccc2n1-c1cc(OCC2CCN(C3CCOCC3)CC2)nc(N2CCOCC2)n1', 'PIK3CA (human) (UniProt P42336)', '< 5.00'),
  ('Nc1nc2cc(-c3ccc4ncc(N5CC(O)C5)nc4c3)ccc2o1', 'PIK3CA (human) (UniProt P42336)', '> 7.00'),
  ('CS(=O)(=O)Nc1cc(-c2ccc3ncc(C(=O)N4CCOCC4)n3c2)ccc1Cl', 'PIK3CA (human) (UniProt P42336)', '> 5.00');

Each of the following entries comes with a recorded value; kindly state pIC50 for each.
1. CN1CCN(C(=O)Nc2ccc3c(c2)C(=O)/C(=C/c2cn(C)c4nccc(-c5ccccc5)c24)O3)CC1
2. CC1(C)CN(c2cnc3ccc(-c4ccc5oc(N)nc5c4)cc3n2)CCN1
3. Cc1cccnc1-n1c(Cn2nc(-c3cc(O)cc(F)c3)c3c(N)ncnc32)nc2scc(C)c2c1=O
4. CN1CCN(CCNc2cnc3ccc(-c4ccc5oc(N)nc5c4)cc3n2)CC1
5. Cc1cc(-c2ccc3oc(N)nc3c2)cc2c(-c3ccncc3)cnn12

stdout:
< 5.00
> 6.00
< 5.00
> 7.00
> 7.00

Each of the following entries comes with a recorded value; kindly state pIC50 for each.
1. NCc1ccc(Oc2cc(=O)[nH]c3ccccc23)cc1
2. CN(C)CCNC(=O)c1cccc(-c2cccc(Oc3cc(=O)[nH]c4ccccc34)c2)c1
3. O=c1cc(Oc2ccc(C3N=CCN3)cc2)c2ccccc2[nH]1 (centres unmarked)
4. Cc1cccc2cc(Cn3nc(I)c4c(N)ncnc43)n(-c3ccccc3O)c(=O)c12
5. O=C(N1CCOc2ccc(-c3ccc(-c4ncc[nH]4)cc3)cc2C1)N1[C@@H]2CC[C@H]1C[C@](O)(C(F)(F)F)C2

stdout:
< 5.00
< 5.00
< 5.00
< 5.00
≥ 7.12

* * *

The compounds below each have a reported IC50 tested on PIK3CA (human) (UniProt P42336); the values come from various publications.

Worked set:
INSERT INTO measurements (compound, assayedsystem, quantitykind, value) VALUES
  ('C[C@H](NC(=O)c1nccnc1N)c1cc2cccc(Cl)c2c(=O)n1-c1ccc(F)cc1', 'PIK3CA (human) (UniProt P42336)', 'IC50', '> 10000 nM'),
  ('Cc1cccc2cc([C@H](C)Nc3ncnc4[nH]ccc34)n(-c3ccccc3)c(=O)c12', 'PIK3CA (human) (UniProt P42336)', 'IC50', '> 10000 nM'),
  ('CC(Oc1nc(-c2ccc3ncc(C(=O)N4CCOCC4)n3c2)cnc1N)C(F)(F)F (centres unmarked)', 'PIK3CA (human) (UniProt P42336)', 'IC50', '< 100 nM');

Each of the following entries comes with a recorded value; kindly state IC50 for each.
1. CS(=O)(=O)CCN1CCC(NC(=O)c2cnc3ccc(-c4ccc5oc(N)nc5c4)cn23)CC1
2. Nc1nc2cc(-c3ccc4ncc(C5=CCOCC5)nc4n3)ccc2o1
3. COc1ncc(-c2cccc3cc([C@H](C)Nc4ncnc5scnc45)n(C4CC4)c(=O)c23)cn1
4. C[C@H](Nc1ncnc2scnc12)c1cc2cccc(C(F)(F)F)c2c(=O)n1-c1cccc(F)c1
5. N#CC1CCN(C(=O)N2CCOc3ccc(-c4ccc(-c5ncc[nH]5)nc4)cc3C2)CC1

stdout:
1: < 100 nM; 2: < 100 nM; 3: 1000 to 10000 nM; 4: 1000 to 10000 nM; 5: 500 to 1000 nM
